Cited source for all entries: paper PMC3100226

# Experimental system: MAO-A (Rattus norvegicus, UniProt P21396)
# Sequence (P21396 1-526): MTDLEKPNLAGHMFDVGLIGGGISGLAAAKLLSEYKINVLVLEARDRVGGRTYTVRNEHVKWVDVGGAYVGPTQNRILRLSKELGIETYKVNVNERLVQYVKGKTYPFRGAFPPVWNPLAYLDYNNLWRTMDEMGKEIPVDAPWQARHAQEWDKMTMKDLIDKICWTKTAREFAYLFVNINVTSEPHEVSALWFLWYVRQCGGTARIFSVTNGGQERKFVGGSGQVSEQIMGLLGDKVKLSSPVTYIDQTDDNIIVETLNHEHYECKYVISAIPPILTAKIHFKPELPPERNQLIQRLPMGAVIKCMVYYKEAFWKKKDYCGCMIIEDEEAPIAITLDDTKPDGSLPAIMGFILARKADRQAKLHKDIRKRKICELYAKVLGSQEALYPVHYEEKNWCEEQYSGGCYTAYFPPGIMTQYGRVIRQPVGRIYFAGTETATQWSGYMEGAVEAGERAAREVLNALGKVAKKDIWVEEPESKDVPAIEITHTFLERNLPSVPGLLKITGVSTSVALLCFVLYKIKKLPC
Endpoint: pIC50
Reminder that pIC50 is minus the log10 of a molar concentration.

# get_value(readout='pIC50', item= NCCNC(=O)c1ncsc1-c1cccc(F)c1 [Ro 41-1049, reference compound] )
7.13

# get_value(readout='pIC50', item= c1ccc(-c2ncc3cc(-n4ccnc4)ccc3n2)cc1 )
6.45
